Cited source: ChEMBL document CHEMBL6103580

tested on: Raji; assay: Antiproliferative activity against human Raji cells assessed as inhibition of cell growth incubated for 72 hrs by MTT assay; type: functional, cell-based
propertyName: IC50 (µM)
Use µM as the unit, but write only the number.

Please indicate IC50 recorded for "O=C1C[C@@H](O)[C@@H]([C@@H](O)[C@@H](O)CO)O1"
24.4

Please indicate IC50 recorded for "CO[C@H]1CC(=O)O[C@H]1[C@H](OC(C)=O)[C@@H](COC(=O)c1ccccc1)OC(C)=O"
27.7

Please indicate IC50 recorded for "CO[C@H]1CC(=O)O[C@H]1[C@H](O)[C@@H](O)COC(=O)c1ccccc1"
21

Please indicate IC50 recorded for "C=C[C@@H](OCc1ccccc1)[C@@H]1OC(=O)C[C@@H]1O"
22.2

Please indicate IC50 recorded for "CO[C@@H]1CC(=O)O[C@@H]1[C@@H](OC(C)=O)[C@H](COC(=O)c1ccccc1)OC(C)=O"
22.3

Please indicate IC50 recorded for "CO[C@@H]1CC(=O)O[C@@H]1[C@@H](OC(C)=O)[C@@H](COC(=O)c1ccccc1)OC(C)=O"
31.4

Please indicate IC50 recorded for "CO[C@H]1CC(=O)O[C@H]1[C@H](O)[C@H](O)COC(=O)c1ccccc1"
19.7

Please indicate IC50 recorded for "C=C[C@H](O)[C@H]1OC(=O)C[C@H]1OC"
32.9
